Test system: MDA-MB-231
assay method text: Anticancer activity against human MDA-MB-231 cells assessed as reduction in cell viability preincubated for 12 hrs followed by photoirradiation with 500 to 700nm and 12 J/cm^2 LED light for 24 hrs by CCK-8 assay
Format: functional, cell-based
experimental conditions: MDA-MB-231, light or radiation study
pIC50: −log10 of the molar value.
measured parameter: pIC50

>>> experimental_result("O=C(Nc1c(I)cc2c3c(cccc13)C(=O)C=C2)c1ccccc1")
5.40
